- Tested on: OVCAR-4 ovarian
- MEASUREMENT_DESCRIPTION: NCI-60 one-dose screen, 48 h (100 = growth as untreated, 0 = no growth, -100 = all killed)
- EXPERIMENTAL_CONDITIONS: 10 µM
About 83,000 compounds went through this panel and 20% of them were active in at least one assay; those are over-represented in the sample as a whole. Activity calls are given as the source filed them. Rule for the calls: active = growth percent below 10; inactive = the rest.
RECORDED_METRIC: growth

INPUT: Fill in: growth of CC12O[C@H](C[C@@H](OC(=O)c3ccccc3)[C@H]1O)n1c3ccccc3c3c4c(c5c6ccccc6n2c5c31)C(=O)NC4=O is ___
OUTPUT: 84.5% (inactive)

INPUT: Fill in: growth of C=C(NC(=O)C(=C)NC(=O)c1csc(C2=NC3c4csc(n4)C4NC(=O)c5csc(n5)C(C(C)(O)C(C)O)NC(=O)C5CSC(=N5)/C(=C/C)NC(=O)C(C(C)O)NC(=O)c5csc(n5)C3(CC2)NC(=O)C(C)NC(=O)C(=C)NC(=O)C(=C)NC(=O)C(C(C)C)NC2C=Cc3c(C(C)O)cc(nc3C2O)C(=O)OC4C)n1)C(N)=O (stereo not drawn) is ___
OUTPUT: 6.53% (active)

INPUT: Fill in: growth of COc1cc(-c2cc(/C=C3\C(=O)Nc4cc(Cl)ccc43)[nH]n2)cc(OC)c1OC is ___
OUTPUT: 19% (inactive)
